Consider the following compounds; for each one, report its pIC50.
System: L02
measurement-notes: MTT assay on normal cell line L02
Format: cell-based
assay-conditions: normal human liver cell line L02, MTT, 48 h
Lab note: report pIC50 as minus log10 of the concentration in molar units, number only.

Ask | Tell me reported pIC50 for COc1ccc(C=C2C(=O)C34C(O)C2CCC3C23COC4(O)C(O)C2C(C)(C)CCC3O)c(OC)c1 (stereo not drawn) , tested with L02.
Reply | 5.15

Ask | Tell me reported pIC50 for "CC(C)=CCOc1ccc(/C=C2/C(=O)[C@]34[C@H](O)[C@H]2CC[C@H]3C23CO[C@]4(O)[C@@H](O)[C@@H]2C(C)(C)CC[C@@H]3O)cc1" , tested with L02.
Reply | 5.16

Ask | Tell me reported pIC50 for "C=C1C(=O)[C@]23[C@H](O)[C@H]1CC[C@H]2[C@@]12CO[C@]3(O)[C@@H](O)[C@@H]1C(C)(C)CC[C@@H]2O" , tested with L02.
Reply | 5.16
